tested on: C. glabrata JCM3761; test: iHOPE antimicrobial microdilution assay (turbidity OD600); type: cell-based, Candida glabrata; conditions: Nakaseomyces glabratus, JCM3761; MOPS-RPMI medium, 24 h; SD in parentheses, n = 3; read-out: IC50 against C. glabrata JCM3761
measurement kind: pIC50
Note: pIC50 values are expressed as the negative base-10 logarithm of concentration in M.

# lookup: pIC50 of [C-]#[N+][C@@H](C)CC(=O)NCCc1ccc(NC(=O)C[C@H](C)[N+]#[C-])cc1 [12b]
7.92

Do the same for CC(C)(S)[C@@H](N)C(=O)O [D-Penicillamine, D-penicillamine] please
3.57

Do the same for [C-]#[N+][C@H](C)CC(=O)N[C@H]1CC[C@@H](NC(=O)C[C@@H](C)[N+]#[C-])CC1 [15a] please
8.09

Do the same for [C-]#[N+][C@@H](C)CC(=O)N[C@H]1CC[C@@H](NC(=O)C[C@H](C)[N+]#[C-])CC1 [15b] please
8.00
